Kindly state phosphorylation enrichment for each of the entries shown.
MEASURED TARGET: Fes (UniProt P07332)
Sequence (P07332 whole entry, looked up): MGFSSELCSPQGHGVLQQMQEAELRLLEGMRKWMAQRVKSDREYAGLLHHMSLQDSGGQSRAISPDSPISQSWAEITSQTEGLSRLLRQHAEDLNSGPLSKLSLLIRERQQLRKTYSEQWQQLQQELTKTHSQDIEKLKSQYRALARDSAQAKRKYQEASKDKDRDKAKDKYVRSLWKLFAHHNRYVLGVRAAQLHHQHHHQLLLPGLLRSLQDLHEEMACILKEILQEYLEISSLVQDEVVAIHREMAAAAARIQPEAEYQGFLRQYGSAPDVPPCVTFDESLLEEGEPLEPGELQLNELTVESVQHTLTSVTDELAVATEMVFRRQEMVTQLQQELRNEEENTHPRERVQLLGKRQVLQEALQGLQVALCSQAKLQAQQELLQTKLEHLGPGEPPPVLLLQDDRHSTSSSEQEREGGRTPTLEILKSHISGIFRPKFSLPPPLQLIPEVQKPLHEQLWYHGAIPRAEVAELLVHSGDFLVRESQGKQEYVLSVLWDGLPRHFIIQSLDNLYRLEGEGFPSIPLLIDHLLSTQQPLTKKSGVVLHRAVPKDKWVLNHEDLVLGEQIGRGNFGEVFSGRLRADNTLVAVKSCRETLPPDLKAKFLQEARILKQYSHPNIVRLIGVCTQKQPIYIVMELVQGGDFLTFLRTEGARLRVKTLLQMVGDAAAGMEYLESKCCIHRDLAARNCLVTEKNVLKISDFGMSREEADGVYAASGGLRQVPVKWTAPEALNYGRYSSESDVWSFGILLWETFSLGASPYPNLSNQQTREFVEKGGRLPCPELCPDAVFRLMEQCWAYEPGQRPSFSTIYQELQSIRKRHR
EXPERIMENT SUMMARY: phosphorylation enrichment, bacterial display (enrichment ratio); higher = better substrate or ligand; peptides without Tyr show the background
Numbers only.

Worked examples follow.
{"columns": ["SEQUENCE TEXT", "phosphorylation enrichment"],
 "data": [
  ["NCFKYYMSDDI [ATRX_Y204]", 1.51],
  ["ITVCDYTNPCT [MYD88_Y276]", 1.02],
  ["FQNGMYGLHQD [SGSH_Y89_H84Y_YF]", 0.709],
  ["LLNPRYNLPLD [TOM1L1_Y109]", 0.952]
]}

Provide reported phosphorylation enrichment for each item, in the same order as listed.
1. LITTLYIDFLG [KCNQ1_Y267_G269D]
2. RWHEGYRQTPR [CD44_Y412_K417R]
3. PHMQTYEVDPN [SDHB_Y61_L65P]
4. YCRIMYDIFPF [INTS13_Y67]
5. LDPIQYSKHPP [SQSTM1_Y433_T430P]
6. EVRTQYEEIAQ [KRT76_Y361_A359T]
7. VDTGVYAVPPP [BCAR1_Y410_S407T]
8. AKVKPYINGTS [IBTK_Y1064_V1065I]

a:
1: 1.96; 2: 0.851; 3: 1.49; 4: 1.48; 5: 0.663; 6: 1.04; 7: 0.799; 8: 0.503

State the recorded phosphorylation enrichment for every item in the following list.
1. TNRSFYFKPSL [NUP153_Y382_V381F]
2. TTPGPYRSIFF [MPG_Y71_YF]
3. PADSGYPAFLG [ATP6V1A_Y374_YF]

a:
[0.993, 0.923, 1.88]

---

MEASURED TARGET: Jak2 (UniProt O60674)
Sequence (O60674 whole entry, looked up): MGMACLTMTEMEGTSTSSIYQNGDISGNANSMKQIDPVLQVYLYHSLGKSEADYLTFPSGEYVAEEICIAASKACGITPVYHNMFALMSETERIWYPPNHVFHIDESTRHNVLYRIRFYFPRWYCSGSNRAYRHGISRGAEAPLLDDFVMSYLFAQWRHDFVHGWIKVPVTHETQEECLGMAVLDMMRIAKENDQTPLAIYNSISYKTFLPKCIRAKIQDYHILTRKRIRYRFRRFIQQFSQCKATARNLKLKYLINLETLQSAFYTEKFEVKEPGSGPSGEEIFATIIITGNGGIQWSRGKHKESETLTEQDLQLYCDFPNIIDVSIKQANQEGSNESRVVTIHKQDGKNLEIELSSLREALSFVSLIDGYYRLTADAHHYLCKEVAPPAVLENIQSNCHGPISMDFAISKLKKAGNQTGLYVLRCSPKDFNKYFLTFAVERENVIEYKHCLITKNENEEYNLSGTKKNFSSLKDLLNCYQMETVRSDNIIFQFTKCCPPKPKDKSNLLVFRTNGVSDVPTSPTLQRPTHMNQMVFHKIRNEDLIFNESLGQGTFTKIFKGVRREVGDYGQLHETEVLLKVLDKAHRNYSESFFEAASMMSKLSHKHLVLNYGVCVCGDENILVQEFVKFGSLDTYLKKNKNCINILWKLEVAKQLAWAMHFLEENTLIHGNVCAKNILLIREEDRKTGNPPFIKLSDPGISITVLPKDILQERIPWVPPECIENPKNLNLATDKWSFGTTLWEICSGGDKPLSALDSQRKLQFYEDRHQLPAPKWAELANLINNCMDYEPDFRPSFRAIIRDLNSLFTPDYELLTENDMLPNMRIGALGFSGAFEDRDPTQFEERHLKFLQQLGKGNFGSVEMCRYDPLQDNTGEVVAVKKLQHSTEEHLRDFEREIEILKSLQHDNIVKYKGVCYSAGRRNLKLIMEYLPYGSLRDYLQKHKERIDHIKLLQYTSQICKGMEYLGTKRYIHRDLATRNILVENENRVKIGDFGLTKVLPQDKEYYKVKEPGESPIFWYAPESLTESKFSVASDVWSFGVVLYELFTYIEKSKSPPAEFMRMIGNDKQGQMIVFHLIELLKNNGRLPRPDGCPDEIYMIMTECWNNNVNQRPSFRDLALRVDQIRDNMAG
EXPERIMENT SUMMARY: phosphorylation enrichment, bacterial display (enrichment ratio); higher = better substrate or ligand; peptides without Tyr show the background
MEASURED PARAMETER: phosphorylation enrichment
Answers are plain numbers.

For orientation, consider the following solved cases.
{"columns": ["SEQUENCE TEXT", "phosphorylation enrichment"],
 "data": [
  ["LSQQVYRVNLS [FAT4_Y480_F475L]", 0.647],
  ["RSFSPYDFQPC [TNS1_Y796_YF]", 1.28],
  ["ASKEPYFVRCI [MYO1D_Y585_YF]", 1.22],
  ["YRRITYHNWRH [PDE6B_Y556]", 0.585],
  ["AEEEIYGEFEA [Src_opt_1995]", 1.29],
  ["AHAGEYGVEAL [HBA1_Y25_A27V]", 0.793]
]}

Parameters: items (list). Returns: phosphorylation enrichment for each item.
1. VQQVIYATRAL [MYH7_Y422_G425R]
2. GYIISYREEEQ

a:
0.598
1.53

Look up phosphorylation enrichment for the entries below, preserving their order.
1. CVRTIYTIDGS [DCLK2_Y124_G119C]
2. KGEDFYCVTCP [FHL1_Y149_H154P]
3. CTTIHCNFMCN [TP53_Y234_Y234C_YF]
4. FIRKDYEACKA [BBS4_Y48_YF]
5. DTQNSYGCATS [TSC1_Y304]
6. AHAGEHGAEAL [HBA1_Y25_Y25H]

a:
[0.807, 1.33, 0.862, 0.741, 0.489, 0.491]

---

Can you tell me phosphorylation enrichment for the items I'm about to list?
MEASURED TARGET: Fes (UniProt P07332)
EXPERIMENT SUMMARY: phosphorylation enrichment, bacterial display (enrichment ratio); higher = better substrate or ligand; peptides without Tyr show the background
Give bare numbers.

Use the examples below as a reference point.
{"columns": ["SEQUENCE TEXT", "QUANTITATIVE RESULT"],
 "data": [
  ["WSQAMYPDLGP [STARD8_Y330_R327Q]", 0.921],
  ["NYYDLYGGEKF [PTPN11_Y66_D61N]", 1.03]
]}

# batch: return phosphorylation enrichment for each of the 5 sequences below
1. RLLVIYPWTQR [HBG2_Y36_V35I]
2. HPWPQYTTRAP [FNDC1_Y1281]
3. PTTKTYFPHFD [HBA1_Y43]
4. RGRSTYYWPSP [GAGE12J_Y9_R13S]
5. HGAKVYIDPFT [EPHB4_Y590_T587A]

a:
1.46
0.603
0.929
0.885
1.04

Look at each sequence and report its phosphorylation enrichment.
1. NSNAAYEESHF [LRIF1_Y714_Q716E]
2. HGTKVYIDPFT [EPHB4_Y590]
3. FTTIHYNFMCN [TP53_Y234_C229Y_YF]
4. LKSEMYQKLLK [RGS13_Y146]
5. IPPRRYFCSGV [STAMBP_Y36_R38C]
6. LGGAMYFLEAE [PKHD1_Y452_YF]
7. RHFTGYRIELQ [INSR_Y818]
8. LGGSPYPRVPV [FGFR1_Y701_G703R]

a:
1: 0.919; 2: 0.705; 3: 1.4; 4: 1.18; 5: 0.739; 6: 1.8; 7: 1.37; 8: 0.55

Batch request: phosphorylation enrichment per item, same order as input.
1. DHPSEYAARQL [ANXA13_Y90_R86H]
2. MSSLFYANTLF [HOXB7_Y6_YF]
3. GRKTLYSFFSP [UNG_Y8_Q4R]
4. MPLTEYLKRIK [CNGB3_Y200]
5. PSQRRYVYYYS [PTEN_Y174]
6. VMAVAYRLAEQ [HK1_Y461_T457M]
7. EATKVYLDDPT [G6PD_Y322_G321V]
8. YGTAQYCCRMG [LRRK2_Y2023_I2020T]

a:
[0.633, 1.19, 0.825, 0.616, 1.08, 1.06, 0.967, 0.613]

---

MEASURED TARGET: c-Src SH2
EXPERIMENT SUMMARY: SH2 binding enrichment of the phosphorylated peptide, bacterial display (enrichment ratio); higher = better substrate or ligand; peptides without Tyr show the background
MEASURED PARAMETER: SH2 binding enrichment

Some entries whose results are on file:
{"columns": ["SEQUENCE TEXT", "MEASURED PARAMETER", "RESULT"],
 "data": [
  ["FFHCTYKQRMI [CLEC12A_Y242_K244Q_YF]", "SH2 binding enrichment", 0.902],
  ["GPGLVYGVANK [FLNB_Y1833]", "SH2 binding enrichment", 0.551],
  ["LAETSYVIVLE [MAGEA1_Y276_K278I]", "SH2 binding enrichment", 0.479],
  ["SSVPDYLAAVD [GLB1_Y154_D151V]", "SH2 binding enrichment", 0.523],
  ["TKEPKYEGAGS [KIAA1210_Y1615]", "SH2 binding enrichment", 0.597]
]}

For each of the sequences below, note its SH2 binding enrichment.
1. EMFNPYFGLFE [NEDD4L_Y679_YF]
2. AEEEIYGEFEA [Src_opt_1995]
3. GKMPQYLESMQ [CYB5R3_Y130_S128P]
4. VGQRPYRPLPE [REEP3_Y170_Q171R]
5. RNIQQYNSFVS [PRKAR1A_Y373]
6. RKKEEYKMALY [F8_Y1990]
7. SSRKEYFIGGG [GYPC_Y126]

a:
0.743
0.483
0.571
0.59
0.602
0.931
0.63

For each listed entry, give its SH2 binding enrichment.
1. FIGRIYLFLTK [GARS1_Y414_YF]
2. RCNHPYLINGA [CHD7_Y1256_C1251R]

a:
1: 0.879; 2: 0.732

---

MEASURED TARGET: SHP2-C SH2
EXPERIMENT SUMMARY: SH2 binding enrichment of the phosphorylated peptide, bacterial display (enrichment ratio); higher = better substrate or ligand; peptides without Tyr show the background
Provide the recorded SH2 binding enrichment for the entries that follow.
Numbers only.

// below: answered sequences
{"columns": ["SEQUENCE TEXT", "MEASURED TARGET", "QUANTITATIVE RESULT"],
 "data": [
  ["FKNGDYNEVMK [LCT_Y1638]", "SHP2-C SH2", 0.642],
  ["MTRDIYETDYY [INSR_Y1185]", "SHP2-C SH2", 0.6],
  ["HSLLQYGGSAN [ANK1_Y624_R619H]", "SHP2-C SH2", 0.661],
  ["HSSPVYVGRVV [TGM2_Y219_R214H]", "SHP2-C SH2", 1.22],
  ["RFVTRHIFNRE [HLA-DQB1_Y62_Y62H_YF]", "SHP2-C SH2", 0.721]
]}

Give one value of SH2 binding enrichment per listed sequence.
1. ARLEFCENEKK [IRS1_Y47_Y47C_YF]
2. DTFDPYLDVAL [USP36_Y268_YF]

a:
1. 0.686
2. 0.953
